FYI, the data here is from the OligoGym collection.

Target: PLA2R1
Assay: pooled miR-30 sensor sort-seq; sequence = guide strand; note: reference of the scale not given here
Conditions: shRNA
Rule: y for sensor-assay potency score (higher = more potent) not less than -0.2, n for anything less.

- TAAAAGATTAGAACCTTCCTTT: y
- TTACTTTTAAATTTTATCCAGG: n
- TTGAGCATTCAACCAAACCATC: n
- TAGTATCACAACCTACTTCTGC: n
- TTTCTGAGCACAACTCTGGGTG: n
- TTTTTCACTATGAAATACCTTG: n
- TTTTGTAACAGAATCCACCATG: y
- TTATCTGTGGTGAACAGTCCAA: y
- TAATGCACTGTTATCAGCCTGA: y

* * *

Target: DEK
Assay: pooled miR-30 sensor sort-seq; sequence = guide strand
Settings: shRNA
Readout Type: sensor-assay potency score (higher = more potent)

- TAACTCTTCATCTGTAGGGGGT: 0.328
- TTAATGAGGACACAGTGCCTGG: -0.975
- TTCTTTATCTTCATCATCTGAA: 0.212
- TAGTTCACTATTTACACCTGAT: -0.118
- TTTGGAACTGTTTTGATTCTTC: 0.827

* * *

Biological target: DOK4
Assay: pooled miR-30 sensor sort-seq; sequence = guide strand
Conditions: shRNA
Readout Type: sensor-assay potency score (higher = more potent)

* TCTAGCTCTGAGTCGCAGGTGA | -0.0163
* TAGTGTCTTGTACCACTCCTCT | -0.903
* TTTAGCAGGATGAATCTGTTGA | 0.432
* TTGAGGAGGTCTGTTTCCGAGC | -1.09
* TTCTCCCAGACTGATGTCGTTG | -1.27
* TCTGAGTCGCAGGTGAAGGTAC | -0.935
* TAGCTCTGAGTCGCAGGTGAAG | -1.6

* * *

Target: HBA2
Assay: pooled miR-30 sensor sort-seq; sequence = guide strand
Conditions: shRNA
Readout Type: sensor-assay potency score (higher = more potent)

• TTCAAAGACCAGGAAGGGCCGG = -0.416
• TTATTCAAAGACCAGGAAGGGC = -1.06
• AAGACCAGGAAGGGCCGGTGCA = -1.15
• TATTCAAAGACCAGGAAGGGCC = -0.938
• AGGAAGGGCCGGTGCAAGGAGG = -2.16
• TTTATTCAAAGACCAGGAAGGG = -0.785
• TGCAAGGAGGGGAGGAGGGCCC = -1.68
• AGGGCCGGTGCAAGGAGGGGAG = -1.98

* * *

Molecular target: TSC22D3
Assay: pooled miR-30 sensor sort-seq; sequence = guide strand
Conditions: shRNA
Readout Type: sensor-assay potency score (higher = more potent)

* TCTCTCACAGCATACATCAGAT | -0.863
* TAGGACATCTCTTGGCACCAGC | -0.981
* TTGTTGTTCTCCCCGCTGCTGC | -1.15
* TTGCCAGGGTCTTCAACAGGGT | -0.965
* AACTTCTCCAGCTGCTCTGGGC | -1.22
* TTGTCTATGGCCACCACGCTGG | -0.721
* TTGTCGGTATTGAGGTTCTCAA | -1.48
* TTGAGCTTGTCGGTATTGAGGT | -0.00573
* TTATGCTGTTGAGCTTGTCGGT | -0.79
* TGAGCTTGTCGGTATTGAGGTT | -0.394
* ATTGAGGTTCTCAAAGACCAGC | -1.14
* TTCTTCATAGGAACAGTCGTTG | -0.524

* * *

Let's look at some sequences and their measured sensor-assay potency score (higher = more potent).
Target: DEF6
Assay: pooled miR-30 sensor sort-seq; sequence = guide strand
Settings: shRNA
Readout Type: sensor-assay potency score (higher = more potent)

* TTGTGTAGGGACGTCTTCCCCT | -0.678
* TTGAAGAGGCACCAGAGGCGGA | -1.08
* AAGAGCTCCAGGAACTGCCAGA | -0.993
* TTCTTCATCTCGCCGAGCTTTC | -1.29

* * *

Molecular target: ZNF609
Assay: pooled miR-30 sensor sort-seq; sequence = guide strand
Conditions: shRNA
Let's look at some sequences and their measured sensor-assay potency score (higher = more potent).
Readout Type: sensor-assay potency score (higher = more potent)

* TTGACTTTCTTTAGCAGGCGAC | -0.497
* TTGCAGTCACTACTTGTGCTTT | -0.589
* TGATTTGACACTGTCTACCTTG | 0.639
* TATTGGATCCATCTCTGCCTGT | -0.575
* TCTTTTTCCATACACTTCCTTT | -0.591

* * *

Target: PGLYRP2
Assay: pooled miR-30 sensor sort-seq; sequence = guide strand
Conditions: shRNA
Let's look at some sequences and their measured sensor-assay potency score (higher = more potent).
Readout Type: sensor-assay potency score (higher = more potent)

• TAGTCTCCAAGGATGACCCCAT = -0.15
• TTAACAGAGATGCCTTGGGGTC = -1.41
• TTGGCTCATGCACTGAAGCTGG = -0.819
• ATCTGCAGTGGTGACATCTGGA = -0.549
• TTCTGCCGTCGGAAGTTGCTGC = -0.417
• TCGTACACGTAGCCGTCCGAGC = -1.66
• ATCTCTTAGAGACACTCCTGGC = -0.911

* * *

Molecular target: DOCK1
Assay: pooled miR-30 sensor sort-seq; sequence = guide strand
Conditions: shRNA
Let's look at some sequences and their measured sensor-assay potency score (higher = more potent).
Readout Type: sensor-assay potency score (higher = more potent)

* TAACAGTCTCAAACCAGCGTGG | -0.364
* TTTCGTTCTCATACTGCTCGGC | 0.184
* TTCACATCGTTGACGATCGTTG | -0.549
* TATCTTGTGTTGACCAAGGTTG | -0.193
* TTCGTAACGTGTAACCTCGGTA | -0.19
* TTGTCTGTTAATATCTATGTTC | -0.583
* AACACTTTTGTCAACTTCGTGT | 0.131
* TTAGACTTTTTTCGTAACGTGT | -0.535
* TTCGACTTCATGATCCAGCTTG | 0.58
* TATTATATCTGTTACATCCATC | -0.566
* TAACACTTTGTACTGTTCGTCT | -0.198
* TTGGAGACACACCTCAACCAAC | -1.22

* * *

Target: OXSR1
Assay: pooled miR-30 sensor sort-seq; sequence = guide strand
Conditions: shRNA
Rule: Fulfilled for sensor-assay potency score (higher = more potent) not less than -1, Not fulfilled for anything less.

• TATCTGAGCCTTCGACACCAGA = Not fulfilled
• TTGTCTGTAAAAACAATCCAAA = Not fulfilled
• TCTTGGTTTCTTGTGAACCTGA = Fulfilled
• TAATCTTAGTACTAGACTGATT = Not fulfilled
• TATTGATTCTTTCACTCGGGGA = Fulfilled
• TTTACTAACGGAACTCTGGGGA = Fulfilled
• TTTGATTGCCACTTTCTCCTTT = Fulfilled

* * *

Let's look at some sequences and their measured sensor-assay potency score (higher = more potent).
Target: C8orf86
Experiment: pooled miR-30 sensor sort-seq; sequence = guide strand
Details: shRNA
Readout Type: sensor-assay potency score (higher = more potent)

- TTCTAATCAACTCCTCAGCTGG: -0.81
- ATTGCTTCTAATCAACTCCTCA: 0.067
- TTGTCTCTCTGTTCGCTGCTCA: 0.291
- TCTTTGTCTCTCTGTTCGCTGC: -0.625
- TTGCTTCTAATCAACTCCTCAG: -0.327
- TAATTCAGGAGTTCTGGGCGGG: 0.0945
- TTTGAAGAAACCACAGATGCGA: 0.17

* * *

Target: CCDC124
Test: pooled miR-30 sensor sort-seq; sequence = guide strand
Conditions: shRNA
Let's look at some sequences and their measured sensor-assay potency score (higher = more potent).
Readout Type: sensor-assay potency score (higher = more potent)

* TTGAGCAGCTGTTTCAGCTGCG | 0.469
* TTTCAGCTGCGACAGCCGCATG | -1.52
* TTCTGCTTCTTGGCATCAGCGG | -0.999
* TTGTCGTCGTCCTTCCAGTAGG | -1.14
* TGAGCTTGGAGTCCTCCTCCTC | -1.05
* TTGAGCTTGGAGTCCTCCTCCT | -0.0303
* TTCTCTTGTTTGAGCCGCGGCA | -0.945
* TTGTTTGAGCCGCGGCAGCTGG | -1.54
* TAGGCGCTGCGTCTCCTTCTTA | -1.03
* TCTGCTTCTTGGCATCAGCGGC | -1.05

* * *

Let's look at some sequences and their measured sensor-assay potency score (higher = more potent).
Biological target: MFRP
Assay: pooled miR-30 sensor sort-seq; sequence = guide strand
Conditions: shRNA
Readout Type: sensor-assay potency score (higher = more potent)

• TTGTCATCGCTGCCATCGGTGC = -1.66
• TGTCCTAAACAGCACAGCCAGC = -1.58
• TTGCAGAACTCGGTCTTGCTCG = -0.303
• TATGCTGAGGGCTTCGATCTTG = -0.113
• TACTGCTGCAGGTAGCTGGGAG = -0.172
• TAGTTCTATGCTGTGTCCGGCA = -0.362
• TCAAACTTGCACTCGTCCTGAG = 0.173
